- assay-target: human insulin receptor (HIR) (Homo sapiens)
- Construct: made in house
- Sequence (P06213 763-1382 limits assumed, one chain of several): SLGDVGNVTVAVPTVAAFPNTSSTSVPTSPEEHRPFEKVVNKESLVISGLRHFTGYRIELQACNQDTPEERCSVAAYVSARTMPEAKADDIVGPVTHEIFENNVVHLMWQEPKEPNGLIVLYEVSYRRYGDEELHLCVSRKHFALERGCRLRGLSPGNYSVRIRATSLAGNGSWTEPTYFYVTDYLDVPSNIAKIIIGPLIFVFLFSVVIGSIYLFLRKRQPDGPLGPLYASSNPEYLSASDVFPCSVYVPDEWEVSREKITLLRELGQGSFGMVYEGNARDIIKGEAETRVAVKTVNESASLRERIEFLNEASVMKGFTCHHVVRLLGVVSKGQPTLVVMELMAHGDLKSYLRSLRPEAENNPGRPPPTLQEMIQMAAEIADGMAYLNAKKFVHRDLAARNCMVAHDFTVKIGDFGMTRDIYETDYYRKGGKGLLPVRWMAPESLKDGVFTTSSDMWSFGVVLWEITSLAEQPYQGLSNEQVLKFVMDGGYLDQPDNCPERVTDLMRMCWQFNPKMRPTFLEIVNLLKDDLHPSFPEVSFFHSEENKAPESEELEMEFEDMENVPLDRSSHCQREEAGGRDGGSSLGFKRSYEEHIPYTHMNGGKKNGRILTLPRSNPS
- assay-method-text: Insulin receptor binding, competition with 125I-labeled insulin (radio-receptor assay)
- test-settings: HIR binding affinity of synthetic peptides
No end group written: not given here.
quantity: Kd
Lab note: write values as number then unit, every time.

INSERT INTO assay_data (entry_sequence, reported_result) VALUES
  ('GSLDESFYDWFERQL [Peptide S395]', '0.081 µM'),
  ('HDPFYSMMKSLLK [Peptide S120]', '2 µM');

Below: the item to evaluate.
Query: So what Kd did SLNFYDALQLLAKK [Peptide S119] get with human insulin receptor (HIR) (Homo sapiens)?
Reply: 1.8 µM

---

- assay-target: IGF-1R (Homo sapiens)
- test-settings: read-out: TR-FRET rhIGF-1R IC50; vs. b-20E2; Table 22
No end group written: not given here.
quantity: pIC50
Give bare numbers, as −log10 of the molar value.

Query: // query pIC50 value for entry DYKDFYDAIDQLVRGSARAGGTRD [20E2(D118)]
Reply: 7.00

---

- assay-target: IGF-1R (Homo sapiens, UniProt P08069)
- Sequence (P08069 31-736 limits assumed): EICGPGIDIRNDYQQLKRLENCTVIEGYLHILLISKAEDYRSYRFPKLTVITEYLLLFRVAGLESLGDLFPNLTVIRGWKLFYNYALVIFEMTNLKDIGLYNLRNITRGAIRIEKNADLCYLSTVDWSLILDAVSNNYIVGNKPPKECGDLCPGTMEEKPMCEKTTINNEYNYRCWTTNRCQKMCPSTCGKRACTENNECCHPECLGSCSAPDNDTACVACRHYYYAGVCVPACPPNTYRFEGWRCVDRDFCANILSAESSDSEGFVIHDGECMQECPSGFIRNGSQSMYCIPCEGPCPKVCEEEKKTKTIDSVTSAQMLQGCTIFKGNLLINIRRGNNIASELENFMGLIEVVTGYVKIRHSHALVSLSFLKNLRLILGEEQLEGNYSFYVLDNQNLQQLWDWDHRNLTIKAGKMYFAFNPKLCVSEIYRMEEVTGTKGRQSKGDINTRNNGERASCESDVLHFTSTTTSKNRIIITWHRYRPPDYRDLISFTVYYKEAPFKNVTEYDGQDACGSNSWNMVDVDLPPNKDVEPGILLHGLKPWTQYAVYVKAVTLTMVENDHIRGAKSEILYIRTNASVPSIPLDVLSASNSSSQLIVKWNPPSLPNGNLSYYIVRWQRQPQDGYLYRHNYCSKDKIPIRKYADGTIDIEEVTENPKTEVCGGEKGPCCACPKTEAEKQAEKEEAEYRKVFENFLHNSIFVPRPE
- Sequence (P08069 741-935 limits assumed): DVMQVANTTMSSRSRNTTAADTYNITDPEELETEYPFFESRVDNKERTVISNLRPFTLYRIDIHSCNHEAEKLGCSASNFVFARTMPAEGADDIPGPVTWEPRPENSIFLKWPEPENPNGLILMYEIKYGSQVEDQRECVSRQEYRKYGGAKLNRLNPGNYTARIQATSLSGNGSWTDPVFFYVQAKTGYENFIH
No end group written: not given here.
quantity: pIC50
Answers are plain numbers, as −log10 of the molar value.

Query: // query pIC50 value for entry PPWGARFYDAIEQLVFDNL [RP4]
Reply: 5.09

---

- assay-target: His-tagged soluble recombinant human IGF-1R (srhIGF-1R-his) (Homo sapiens)
- Sequence (P08069 31-736 limits assumed): as the sequence (P08069 31-736 limits assumed) above
- Sequence (P08069 741-935 limits assumed): as the sequence (P08069 741-935 limits assumed) above
- assay-method-text: ALPHAScreen binding assay, competition with b-hIGF-1
- test-settings: Table 29
quantity: pIC50
One number for each entry, as −log10 of the molar value.

Query: // query pIC50 value for entry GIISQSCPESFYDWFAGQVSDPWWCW [Peptide G33]
Reply: 6.22

---

- assay-target: soluble human insulin receptor-immunoglobulin heavy chain chimera (sIR-Fc) (Homo sapiens)
- Construct: replacing the transmembrane domain and the intracellular domain of IR with constant domains from immunoglobulin Fc or λ subunits; made in house; host or cells: human embryonic kidney 293 cells (as described for the Bass construct)
- Sequence (P06213 28-758 limits assumed, stated change not applied): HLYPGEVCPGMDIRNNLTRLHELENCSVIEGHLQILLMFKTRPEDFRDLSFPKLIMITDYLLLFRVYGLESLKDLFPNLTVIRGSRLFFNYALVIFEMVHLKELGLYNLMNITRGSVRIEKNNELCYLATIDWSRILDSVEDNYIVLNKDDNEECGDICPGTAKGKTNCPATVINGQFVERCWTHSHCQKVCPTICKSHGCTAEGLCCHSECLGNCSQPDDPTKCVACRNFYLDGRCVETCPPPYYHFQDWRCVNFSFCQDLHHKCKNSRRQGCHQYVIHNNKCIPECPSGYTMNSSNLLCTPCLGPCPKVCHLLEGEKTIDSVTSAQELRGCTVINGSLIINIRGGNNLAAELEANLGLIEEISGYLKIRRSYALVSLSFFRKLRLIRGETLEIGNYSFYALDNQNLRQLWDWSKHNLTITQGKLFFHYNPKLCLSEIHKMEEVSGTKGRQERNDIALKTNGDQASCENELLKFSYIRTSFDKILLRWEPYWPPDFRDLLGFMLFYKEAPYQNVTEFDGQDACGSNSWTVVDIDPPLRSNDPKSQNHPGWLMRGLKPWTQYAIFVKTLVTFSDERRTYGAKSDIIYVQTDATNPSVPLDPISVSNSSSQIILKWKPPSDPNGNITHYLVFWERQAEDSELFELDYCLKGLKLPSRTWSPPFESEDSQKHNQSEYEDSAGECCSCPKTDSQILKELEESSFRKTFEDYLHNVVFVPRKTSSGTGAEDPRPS
- Sequence (P06213 763-956 limits assumed, stated change not applied): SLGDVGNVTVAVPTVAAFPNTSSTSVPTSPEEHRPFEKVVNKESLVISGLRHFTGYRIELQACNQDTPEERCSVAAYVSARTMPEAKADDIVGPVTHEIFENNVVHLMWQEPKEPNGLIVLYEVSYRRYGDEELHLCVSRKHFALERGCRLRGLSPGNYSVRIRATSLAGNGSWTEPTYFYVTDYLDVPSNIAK
- assay-method-text: Fluorescence polarization competition with FITC-RP9, sIR-Fc
- Assay type: binding
- test-settings: vs. FITC-RP9; Table 22; read-out: FP sIR-Fc IC50
No end group written: not given here.
quantity: pIC50
Answers are plain numbers, as −log10 of the molar value.

Query: // query pIC50 value for entry PPWGARFYDAIEQLVFDNL [RP4]
Reply: 7.77
